Target: human CB2 receptor (Homo sapiens (Human), UniProt P34972)
Sequence (P34972 whole entry): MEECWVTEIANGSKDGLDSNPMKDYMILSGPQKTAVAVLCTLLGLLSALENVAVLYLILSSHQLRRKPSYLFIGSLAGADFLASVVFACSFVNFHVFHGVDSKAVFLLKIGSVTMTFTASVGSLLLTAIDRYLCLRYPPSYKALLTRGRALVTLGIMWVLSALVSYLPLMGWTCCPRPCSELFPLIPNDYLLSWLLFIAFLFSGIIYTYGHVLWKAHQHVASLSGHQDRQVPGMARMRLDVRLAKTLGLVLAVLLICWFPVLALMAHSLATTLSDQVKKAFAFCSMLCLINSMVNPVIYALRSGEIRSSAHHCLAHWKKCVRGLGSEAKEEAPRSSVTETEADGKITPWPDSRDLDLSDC
Experiment: CB2 receptor cAMP assay (DiscoverX HitHunter cAMP XS+)
Type: cell-based
pIC50: −log10 of the molar value.
Respond with TRUE for pIC50 values of 8 and above, FALSE for values below.

{"columns": ["COMPOUND", "CLASS NAME"],
 "data": [
  ["CC(C)c1cnc2c(c1)cc(C(=O)N[C@H](C)c1ccc(C#N)cc1)c(=O)n2Cc1ccc(F)cc1", "TRUE"],
  ["O=C(NC12CC(C1)C2)c1cc2cc(C3CC3)cnc2n(Cc2ccc(F)cc2)c1=O", "TRUE"],
  ["O=C(NC1CC2(CCC2)C1)c1cc2cc(-c3ccc(OC(F)F)cc3)cnc2n(CCN2CCOCC2)c1=O", "TRUE"],
  ["O=C(NC1CC2(CCC2)C1)c1cc2cc(Br)cnc2n(Cc2ccc(F)cn2)c1=O", "FALSE"],
  ["CC(NC(=O)c1c(O)c2cc(-c3ccc(F)cc3)cnc2n(CCN2CCOCC2)c1=O)c1ccc(F)cc1 (stereo not shown)", "FALSE"]
]}

---

Biological target: human CB2 receptor (Homo sapiens (Human), UniProt P34972)
Assay: CB2 receptor binding assay ([3H]CP-55,940 displacement, HEK-293 membranes)
Settings: membranes of HEK-293 cells with human recombinant CB2R, [3H]CP-55,940; class symbols; read-out: CB2 IC50
pIC50: −log10 of the molar value.
METRIC: pIC50

{"columns": ["MOLECULE", "EXPERIMENTAL VALUE"],
 "data": [
  ["CC(C)(NC(=O)c1c(O)c2cc(-c3ccc(F)cc3)cnc2n(CCN2CCOCC2)c1=O)C(=O)O", "< 6.00"],
  ["O=C(NC12CC(C1)C2)c1c(O)c2cc(-c3cccnc3)cnc2n(CCN2CCOCC2)c1=O", "< 6.00"],
  ["C[C@H]1CC[C@H](NC(=O)c2c(O)c3cc(-c4ccc(OC(F)F)cc4)cnc3n(CCN3CCOCC3)c2=O)CC1", "< 6.00"],
  ["CC1CCC(NC(=O)c2cc3cc(-c4ccccn4)cnc3n(CCN3CCOCC3)c2=O)CC1 (stereo not shown)", "> 7.00"],
  ["COc1c(C(=O)NC23CC(C2)C3)c(=O)n(CCN2CCOCC2)c2ncc(-c3ccc(F)cc3)cc12", "< 6.00"],
  ["CC1CCC(NC(=O)c2cc3cc(-c4ccc(C#N)cn4)cnc3n(CCN3CCOCC3)c2=O)CC1 (stereo not shown)", "> 7.00"],
  ["COc1ccc(-c2cnc3c(c2)c(O)c(C(=O)N[C@H]2CC[C@@H](C)CC2)c(=O)n3CCN2CCOCC2)cc1", "> 7.00"]
]}

---

Molecular target: human recombinant CB1R (Homo sapiens (Human), UniProt P21554)
Sequence (P21554 whole entry): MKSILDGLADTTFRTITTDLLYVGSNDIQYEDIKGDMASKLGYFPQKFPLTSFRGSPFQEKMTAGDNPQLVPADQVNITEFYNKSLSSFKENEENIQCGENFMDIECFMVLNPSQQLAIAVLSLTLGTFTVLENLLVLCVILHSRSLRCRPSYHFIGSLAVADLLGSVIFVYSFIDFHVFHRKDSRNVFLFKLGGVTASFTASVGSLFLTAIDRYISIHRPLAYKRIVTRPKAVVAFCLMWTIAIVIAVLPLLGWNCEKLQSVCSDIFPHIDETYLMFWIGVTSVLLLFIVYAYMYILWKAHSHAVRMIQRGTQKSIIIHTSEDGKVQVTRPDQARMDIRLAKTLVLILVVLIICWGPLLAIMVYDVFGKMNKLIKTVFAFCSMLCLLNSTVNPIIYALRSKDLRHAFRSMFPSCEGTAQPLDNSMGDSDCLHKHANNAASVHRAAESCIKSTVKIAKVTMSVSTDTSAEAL
Assay: CB1 receptor binding assay ([3H]CP-55,940 displacement, HEK-293 membranes)
Details: membranes of HEK-293 cells with human recombinant CB1R, [3H]CP-55,940; read-out: CB1 IC50
pIC50: −log10 of the molar value.

{"columns": ["MOLECULE", "LIMIT OPERATOR", "pIC50"],
 "data": [
  ["N#Cc1ccc(-c2cnc3c(c2)cc(C(=O)NC2CC4(CCC4)C2)c(=O)n3CCN2CCOCC2)cc1 [Compound 44]", "=", 5.22],
  ["C[C@@H](NC(=O)c1cc2cc(Br)cnc2n(Cc2ccc(F)cc2)c1=O)c1ccc(F)cc1 [Compound 87]", "=", 5.34],
  ["CC1CCC(NC(=O)c2c(O)c3cc(-c4ccc(F)cc4)cnc3n(CCN3CCOCC3)c2=O)CC1 (stereo not shown) [Compound 5]", "=", 5.41],
  ["C[C@@H](NC(=O)c1cc2cc(C3COC3)cnc2n(Cc2ccc(F)cc2)c1=O)c1ccc(C#N)cc1 [Compound 101]", "=", 5.68],
  ["C[C@@H](NC(=O)c1cc2cc(C3CC3)cnc2n(Cc2ccc(F)cc2)c1=O)c1ccc(C#N)cc1 [Compound 95]", "=", 6.05],
  ["C[C@H]1CC[C@@H](NC(=O)c2c(O)c3cccnc3n(CCN3CCOCC3)c2=O)CC1 [Compound 137]", "<", 5.00],
  ["O=C(NC1(CO)CCCCC1)c1c(O)c2cc(-c3ccc(F)cc3)cnc2n(CCN2CCOCC2)c1=O [Compound 121]", "=", 5.64]
]}
